All values here come from patent US20020137929A1.

Tested on: TRZAWR (Wheat, Winter, cv Riband)
Assay explanation: Preemergence herbicidal evaluation
Format: in vivo, Triticum aestivum
Recorded conditions: rate 0.0625 kg/ha; rated 4-5 weeks after treatment
Property label: Preemergence herbicidal rating TRZAWR

Compound	Preemergence herbicidal rating TRZAWR
COC(=O)[C@H](Cc1ccc([N+](=O)[O-])cc1)N1C(=O)CSC1=Nc1cc(-n2c(=O)cc(C(F)(F)F)n(C)c2=O)c(F)cc1Cl	0.0

Req: // returns reported Preemergence herbicidal rating TRZAWR for input C=CCN1C(=O)C(CC(=O)O)SC1=Nc1cc(-n2c(=O)cc(C(F)(F)F)n(C)c2=O)c(F)cc1Cl (centres unmarked)
Resp: 1.0

Req: // returns reported Preemergence herbicidal rating TRZAWR for input "Cn1c(C(F)(F)F)cc(=O)n(-c2cc(/N=C3/SCC(=O)N3CC(=O)O)c(Cl)cc2F)c1=O"
Resp: 0.0

Req: // returns reported Preemergence herbicidal rating TRZAWR for input CCOC(=O)COc1ccccc1CC1S/C(=N/c2cc(-n3c(=O)cc(C(F)(F)F)n(C)c3=O)c(F)cc2Cl)N(CC(=O)OCC)C1=O (centres unmarked)
Resp: 0.0
